Value source: patent US4163784A

Measured Mortality Rate by item
Test system: male CD-1 mice
testProtocol: acute toxicity, single intraperitoneal dose
Format: in vivo
conditionInfo: 1000 mg./kg. single i.p. dose, 0.6% Tween 20, 10 mice per group, observed one week

// worked examples, Mortality Rate included
CCCCN(CCCC)C(=O)NC(=O)c1cncs1    4/10
O=C(NC(=O)N1CC=CCC1)c1ccc(Cl)nc1    0/10
O=C(NCc1ccccc1)NC(=O)c1cccnc1Cl    0/10
O=C(NC(=O)N1CC=CCC1)c1cccnc1 [3-pyridyl, 1-(1,2,3,6-tetrahydropyridyl)]    9/10

Consider the compound CCCCN(CCCC)C(=O)NC(=O)c1cccnc1 and give its measured Mortality Rate.
10/10
